- PROTOCOL DETAILS: protein stability index of a GFP-peptide fusion (GPS, HEK-293T) (PSI 1-6); higher = more stable;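 note: 24-mer peptide tiles fused after GFP, lentivirally expressed, FACS-sorted into six equal bins by GFP/DsRed ratio, decoded by Illumina sequencing, PSI is the read-weighted mean bin number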
- CONDITION NOTES: treatment: DMSO; c terminus: a fixed tail appended

QUERY SEQUENCE	protein stability index
NGTMTIDWNEWRDYHLLHPVENIP [SLC25A25]	3.18
SNFNYFYHRETEGEEQAQLLHVSS [KCNA1]	3.95
RGTGQLNRFVQLSGRPHLPGKKKI [KLHDC10]	2.99
LHKQTASDLLDEKEIAKNLIQPIN [FEM1C]	3.38
AVEGLTEAEEEELRAELTKVEEEI [TPD52L2]	5.6
YRHQRLHTGERPYECTVCKKRFTR [ZNF449]	2.75
AKMLLHEGQHPAQLRSDVCTPGGT [PYCR3]	4.29
HFPHLLSPQIQRSAHRALYRRHVL [TMEM175]	2.69
LIILASGGPQALVNIMRTYTYEKL [CTNNB1]	3.04
RIAAVEALCMLAQSSPSFAEKCLD [INTS4]	2.46
LLWSDPADNKIVSHLLVAEPEKIY [ESRRG]	2.36
FDVHPNELTNGVINAAFMLLFKDL [SNAP91]	2.84
AGCCQVFDALDDYEHHYHTLHGNV [ZNF511]	2.84

---

- PROTOCOL DETAILS: protein stability index of a GFP-peptide fusion (GPS, HEK-293T) (PSI 1-6); higher = more stable
- CONDITION NOTES: treatment: MLN4924 1 uM, 8 h; c terminus: a fixed tail appended

QUERY SEQUENCE	protein stability index
AQTTSEAAMEGATLDQTTSEEAPG [HDAC6]	5.54
KHGKRKRGRPRKLSKEYWDCLEGK [ELF3]	4.38
ESLQELRLLLAGAEVQAKLENAEV [HES6]	3.15
FLCVLMSDWFNFHGHMCIAFELLG [CLK3]	3.11
AGDVIFLLSRINKDWLEGTVRGAT [NCF4]	3.2
GIFPLSFVKILKDFPEEDDPTNWL [NCF4]	2.82
LDYTADEDGVWYSVAPMNVRRGLA [KLHL12]	2.99
NLQPPASLQTGNHSNGPTDLSMKG [NOL4L]	4.61
QQPSKHRTDEELQPPTTTVARSGT [PLK2]	5.27
KDKLGVWVYKNKLIFFGGYGYLPE [KLHDC2]	3.11
ANQLIDIISSDELNVRSEEQVFNA [KLHL20]	4.34
TFHDSKHNIVHVHFDATRGWLLTS [WDFY2]	2.17
SVWGYDLGLRSLIPAVLTVSMLGY [MYORG]	3.06
SMKGSCGIGGGIGGGSSRISSVLA [KRT16]	2.64
AGCCQVFDALDDYEHHYHTLHGNV [ZNF511]	2.88
QWGTVCDDDFSIHAAHVVCRELGY [LOXL2]	2.38
ATGFHFNAMTCEGCKGFFRRSMKR [VDR]	2.9
RPGPQSVPLQLSAHWQCGATLTQV [FCHO1]	2.43
TRGIAKIISAHIHPVCSLCWSRDG [RBBP5]	2.04
PVHIHPAFARQAAQEPSAVPRAGP [FOXJ1]	4.22
QQREKLSLIRKHAQTFIALCATDF [CCND2]	2.44
LQDMLDGFIKKFVLCPECENPETD [EIF5]	3.34
TQQTGTVRFDGYVIDGATALWCAA [FEM1B]	2.22
FEREPSTSDLGTTDVQKKKLVDAI [RIPK4]	4.87
GGSKYLIYRRYRQFHALQSKLEER [NCF4]	2.45
QLSAPHCKKLSLELGGKNPAIIFE [ALDH8A1]	2.9
MMGLAQIYKKYALQSAAGKDAAKQ [PDS5B]	3.23
LQRNPKHELTAKYLNYYQGMLDVA [P3H4]	2.39
LLRLSKHGPGHETPMTIPEFFRES [ACSBG2]	3.06
KEYTTRTQAPPSVILGVTNPFFAK [DENND6A]	2.74
FFAFLHCWLNAFAEMLRFGDRMFY [SOAT2]	3.44
VTAKTAPDVLRTKPAFIGKTNLDG [PTPRD]	4.06
LKSLDKEISEAFTSTGFDRHTSPV [BCL2L13]	4.12
QVESRWGYSGTSDRIRFTVNRRIS [BTBD1]	3.53
DFDLDLVPWESDIWDINNQICTVK [ATF6]	3
SCLLLQLRREKPSEEMVKMVLSRP [INTS3]	2.42
IQLGVTPPGYSAWIKEEAAERYLY [SLC6A17]	2.36
EQERRLSEARLSQRDLSPTAEDAE [FCHSD1]	5.6
FQESASTPETRAKFTQDNLCRAQR [TEKT4]	4.4
MASDTPESLMALCTDFCLRNLDGT [ZER1]	3.43
PMVLMIIVMCVQIKCFHEIITIGY [CDS2]	3.14
LESLQDGAAESPYSHLGGIDYKTT [RAB40A]	4.35
EQLIEAISNGDFESYTKMCDPGMT [CAMK2A]	3.76
SSTLNPSTSSSTQGDPAFPEMNGN [NOL4L]	5.44
LGLSRAQPVQSKPQKASAPAADPP [PDLIM7]	4.86
PKVSDQALVSAHSEWQRKLEAAEA [DMRTC1]	4.66
MFFTCGPNEAMVVSGFCRSPPVMV [FLOT1]	2.9
FGGGYGGGLGGGYGGGLGGGFGGG [KRT13]	2.88
SLHKGAKRKGIKSSIGRLFGKKEK [PPFIA4]	3.73
SSFFFSGVFVGVISFGQLSDRFGR [SLC22A15]	3.02
VYDQAVSIFYDLPQGSGFCLGQLN [SMAD6]	2.16
EKAHECTDCGKAFLKKSQLTEHKR [ZNF649]	3.81
RIFTFICKDSESNKHLCYVFDSEK [GULP1]	2.21
